The reported numbers originate from PubChem BioAssay (NCI).

tested on: SK-MEL-5 melanoma; assay: NCI-60 one-dose screen, 48 h (100 = growth as untreated, 0 = no growth, -100 = all killed); conditions: 10 µM unless noted
About 83,000 compounds went through this panel and 20% of them were active in at least one assay; those are over-represented in the sample as a whole.
I'd appreciate it if you could supply growth values for the items below.
One number for each entry, in %.

molecule	growth, %
CO[C@H]1/C=C/O[C@@]2(C)Oc3c(C)c(O)c4c(O)c(c(/C=N/N5CCN(C)CC5)c(O)c4c3C2=O)NC(=O)/C(C)=C\C=C\C(C)[C@H](O)[C@@H](C)[C@@H](O)[C@@H](C)[C@@H](OC(C)=O)[C@@H]1C (some centres not stated)	90.6
COc1ccc(C(=O)C(C)Br)cc1OC (configuration not stated)	92.1

Each of the following entries comes with a recorded value; kindly state growth for each.
1. COC(=O)[C@]1(C(C)C)N[C@H](c2cn(-c3ccccc3)nc2-c2ccccc2)[C@@H]2C(=O)N(c3ccc(Cl)cc3)C(=O)[C@@H]21
2. COC(=O)[C@]1(CCSC)N[C@H](c2cn(-c3ccccc3)nc2C)[C@@H]2C(=O)N(c3ccccc3)C(=O)[C@@H]21

result:
[101, 101]

Each of the following entries comes with a recorded value; kindly state growth for each.
1. COc1ccc(CCN2CCCN3C2=Nc2ccccc2S3(=O)=O)cc1
2. CCCCCCC(C)(O)c1ccccc1 (configuration not stated)
3. Clc1ccc([C@@H]2C[C@@H]3Cc4cc(Br)c5ccccc5c4N2O3)c(Cl)c1
4. ClC1=C(Cl)C(Cl)=C(Cl)C1=C/C=C/c1ccccc1
5. COc1ccc(Cn2cc3c(c2-c2ccccc2)CCc2cncnc2-3)cc1
6. C[C@]12C[C@H](O)[C@H]3[C@@H](CCC4=CC(=O)CC[C@@]43C)[C@@H]1CC[C@@H]2C(=O)CO
7. Cc1ccc(C(=O)Nc2ccc(Cl)cc2C(=O)NCc2ccccc2)cc1
8. O=C(C(=O)N1CCCCC1)c1ccc(OC2OC(CO)C(O)C(O)C2O)cc1 (configuration not stated)

result:
1: 35.9; 2: 109; 3: 93.8; 4: -97.3; 5: 55.4; 6: 91; 7: 78.4; 8: 105

Each of the following entries comes with a recorded value; kindly state growth for each.
1. Cn1c(N)c(N=O)c(=O)[nH]c1=O
2. Nc1nc(Cl)c2[nH]cnc2n1

result:
1: 102; 2: 105

Each of the following entries comes with a recorded value; kindly state growth for each.
1. C=C(C)[C@H]1CC/C(C)=C/CC[C@]2(C)O[C@H]2CC/C(COC(C)=O)=C\C1=O
2. O=C(Cn1ccnc1)NC(c1ccccc1)c1ccccc1
3. CC1CC(C)/C(=N/NC(N)=O)C(C(O)CC2CCC(=O)NC2=O)C1 (configuration not stated)

result:
1: 109; 2: 99.8; 3: 31.7

* * *

I'd appreciate it if you could supply growth values for the items below.
system: NCI-H226 lung; test: NCI-60 one-dose screen, 48 h (100 = growth as untreated, 0 = no growth, -100 = all killed); settings: 10 µM unless noted
The panel holds about 83,000 compounds, 20% with a hit somewhere; the sample as a whole holds those more often.
One number for each entry, in %.

compound	unitSpec	endpointResult
CN(C)c1cccc2c(S(=O)(=O)N[C@H]3CC[C@H]4[C@@H]5CCc6cc(O)ccc6[C@H]5CC[C@]34C)cccc12	%	51
Nc1ccc(C2=NN(c3ccccc3)C(c3ccc(Cl)cc3)C2)cc1 (stereo unspecified)	%	90.9
Cn1cc(-c2csc(-c3c[nH]c4ncccc34)n2)c2cc(Br)cnc21	%	49
N=c1ccn2c(n1)O[C@@H]1[C@@H](O)[C@H](CO)O[C@@H]12	%	92.4
O=C1Nc2ccccc2C12Nc1cc(Cl)ccc1S2 (stereo unspecified)	%	90.8

Consider the additional compound presented here.
query: Data request, read-out growth, for CCCOc1ccc2c(c1)CC[C@@H]1[C@@H]2CC[C@@]2(C)[C@H]1CC[C@]2(C)O
result: 92.3

* * *

tested on: OVCAR-4 ovarian; test: NCI-60 one-dose screen, 48 h (100 = growth as untreated, 0 = no growth, -100 = all killed); conditions: 10 µM unless noted
The panel holds about 83,000 compounds, 20% with a hit somewhere; the sample as a whole holds those more often.
I'd appreciate it if you could supply growth values for the items below.
Numbers only, in %.

compound	growth (%)
Cn1cc(-c2csc(-c3cn(C)c4ncccc34)n2)c2cc(F)cnc21	93.5

Each of the following entries comes with a recorded value; kindly state growth for each.
1. COc1ccc2c(c1)/C(=C\c1c[nH]c3ccc(F)cc13)C(=O)N2
2. O=C(/C=C/c1cccnc1)/C=C/c1cccnc1
3. Cc1cc(NC(=O)Nc2cccc3ccccc23)no1
4. COc1cc(OC)c2sc(-c3ccc(-n4cncc4-c4ccc(N)cc4)cc3)nc2c1
5. CC(=O)c1nc2ccccc2n1CCn1cc(CC(N)C(=O)O)c2ccccc21 (centres undefined)

result:
[65.1, 20.9, 103, 63.1, 98.8]

Each of the following entries comes with a recorded value; kindly state growth for each.
1. CC1=CC(=O)C(C(C)=Nc2ccccc2Cl)C(=O)O1 (centres undefined)
2. CC(O)c1nc2c(c(=O)n(C)c(=O)n2C)n1C (centres undefined)
3. CCC1=C(c2ccc(OC)cc2)C(C)(C)Oc2c1ccc(O)c2CN1CCCC1

result:
[99.5, 104, 60]

* * *

system: U251 CNS; experiment: NCI-60 one-dose screen, 48 h (100 = growth as untreated, 0 = no growth, -100 = all killed); details: 10 µM unless noted
The panel holds about 83,000 compounds, 20% with a hit somewhere; the sample as a whole holds those more often.
Please respond with 1 (yes) when measured growth is strictly beneath 90%, and with 0 (no) in all other cases.

Example cases with answers are listed next.
molecule	categoryLabel
CN(C)c1ccc(/C=C\c2ccnc3ccccc23)cc1	1 (yes)
CN1C(=O)C(=Cc2cn(Cc3ccccc3)c3ccc(Br)cc23)C(=O)N(C)C1=O	0 (no)
Cc1nn(-c2ccc(Cl)cc2)c2nc3c(nc12)c(=O)oc1ccccc13	0 (no)
CCCCCCC(C)(O)c1ccccc1 (configuration not stated)	0 (no)

Could you now look at the following molecule, please?
query: Hi there! Is growth for COC(=O)[C@]1(CCSC)N[C@H](c2cn(-c3ccccc3)nc2C)[C@@H]2C(=O)N(c3ccccc3)C(=O)[C@@H]21 below 90%, do you know?
result: 0 (no)

* * *

test system: NCI/ADR-RES ovarian; test: NCI-60 one-dose screen, 48 h (100 = growth as untreated, 0 = no growth, -100 = all killed); details: 10 µM unless noted
The panel holds about 83,000 compounds, 20% with a hit somewhere; the sample as a whole holds those more often.
testReadout: growth (%)
One number for each entry, in %.

Please review the following examples before continuing.
compound	endpointResult
C/C(=C\CCc1ccoc1)CC/C=C(\C)CCCN1CCC(CO)CC1	73.4
O=C1CCCN1C1CCN(Cc2cc3ccccc3[nH]c2=O)c2ccccc21 (centres undefined)	97.4
O=C(Cn1ccnc1)NC(c1ccccc1)c1ccccc1	102
Cc1c(C(N)=O)sc2nc(SCC(=O)Nc3ccc(Cl)cc3)n(-c3ccccc3)c(=O)c12	97.2
O=[N+]([O-])c1ccc(Oc2cccc(C(F)(F)F)c2)c([N+](=O)[O-])c1	29.1
N=c1ccn2c(n1)O[C@@H]1[C@@H](O)[C@H](CO)O[C@@H]12	41.6

Each of the following entries comes with a recorded value; kindly state growth for each.
1. O=C(Nc1cccc(-n2cc(-c3ccncc3)c(-c3ccc(O)c(Cl)c3)n2)c1)Nc1ccc(Cl)c(C(F)(F)F)c1
2. O=C(CSc1nc2c(n1Nc1ccccc1)-c1ccccc1SC2)Nc1nc(-c2ccc(Cl)cc2)cs1
3. COc1cccc2c1O/C(=C\c1c([N+](=O)[O-])ncn1C)C2=O

result:
[11.3, 66, 98.1]

* * *

tested on: NCI-H226 lung; test: NCI-60 one-dose screen, 48 h (100 = growth as untreated, 0 = no growth, -100 = all killed); conditions: 10 µM unless noted
Compounds without any hit were thinned out: in the full panel of roughly 83,000, 20% have a hit.
testReadout: growth (%)
Answers are plain numbers, in %.

Please review the following examples before continuing.
compound	unitSpec	growth
Clc1ccc2nc(Cl)c3ccccc3c2c1	%	71.7
O=C(Nc1ccc(C2=NCCCN2)cc1)Nc1ccc(C2=NCCCN2)cc1	%	75
Cc1cc(C(C)(C)c2cc(C)c(O)c(CN(C)C)c2)cc(CN(C)C)c1O	%	96.5
O=C(Nc1ccc(Cl)cc1)Nc1ccc(Nc2nncc3ccccc23)cc1	%	33.3
Cn1c(=O)c2nc(SCc3ccccc3)n(C)c2n(C)c1=O	%	102

Each of the following entries comes with a recorded value; kindly state growth for each.
1. Cc1c(C)c(N2C(=O)C=CC2=O)c(C)c(C)c1N1C(=O)C=CC1=O
2. O=C1/C(=C/c2ccc([N+](=O)[O-])o2)Oc2ccc(Cl)cc21
3. CN1C(=O)C(=Cc2cn(Cc3ccccc3)c3ccc(Br)cc23)C(=O)N(C)C1=O
4. CSc1ncc2ncn(C3OC(CO)C(O)C3O)c2n1 (configuration not stated)
5. Cc1nn(-c2ccccc2)c2c1oc(=O)c1cc(Cl)ccc12

result:
1: 108; 2: -7.54; 3: 32.3; 4: 102; 5: 96.3

Each of the following entries comes with a recorded value; kindly state growth for each.
1. CN1COc2ccc3ccccc3c2C1
2. O=C(/C=C/c1cccnc1)/C=C/c1cccnc1

result:
1. 93.7
2. 2.94
